target: TYK2 (Homo sapiens, UniProt P29597); construct: Degradation of TYK2 in cells was quantitatively measured using Meso Scale Discovery (MSD) technology; endogenous in cells; host or cells: OCI-LY10; assay: TYK2 MSD degradation in OCI-LY10 cells; type: cell-based; details: OCI-LY10 cells, 4 to 24 hours incubation, read-out: TYK2 MSD OCI-LY10 Rel-DC50
Sequence (P29597 whole entry): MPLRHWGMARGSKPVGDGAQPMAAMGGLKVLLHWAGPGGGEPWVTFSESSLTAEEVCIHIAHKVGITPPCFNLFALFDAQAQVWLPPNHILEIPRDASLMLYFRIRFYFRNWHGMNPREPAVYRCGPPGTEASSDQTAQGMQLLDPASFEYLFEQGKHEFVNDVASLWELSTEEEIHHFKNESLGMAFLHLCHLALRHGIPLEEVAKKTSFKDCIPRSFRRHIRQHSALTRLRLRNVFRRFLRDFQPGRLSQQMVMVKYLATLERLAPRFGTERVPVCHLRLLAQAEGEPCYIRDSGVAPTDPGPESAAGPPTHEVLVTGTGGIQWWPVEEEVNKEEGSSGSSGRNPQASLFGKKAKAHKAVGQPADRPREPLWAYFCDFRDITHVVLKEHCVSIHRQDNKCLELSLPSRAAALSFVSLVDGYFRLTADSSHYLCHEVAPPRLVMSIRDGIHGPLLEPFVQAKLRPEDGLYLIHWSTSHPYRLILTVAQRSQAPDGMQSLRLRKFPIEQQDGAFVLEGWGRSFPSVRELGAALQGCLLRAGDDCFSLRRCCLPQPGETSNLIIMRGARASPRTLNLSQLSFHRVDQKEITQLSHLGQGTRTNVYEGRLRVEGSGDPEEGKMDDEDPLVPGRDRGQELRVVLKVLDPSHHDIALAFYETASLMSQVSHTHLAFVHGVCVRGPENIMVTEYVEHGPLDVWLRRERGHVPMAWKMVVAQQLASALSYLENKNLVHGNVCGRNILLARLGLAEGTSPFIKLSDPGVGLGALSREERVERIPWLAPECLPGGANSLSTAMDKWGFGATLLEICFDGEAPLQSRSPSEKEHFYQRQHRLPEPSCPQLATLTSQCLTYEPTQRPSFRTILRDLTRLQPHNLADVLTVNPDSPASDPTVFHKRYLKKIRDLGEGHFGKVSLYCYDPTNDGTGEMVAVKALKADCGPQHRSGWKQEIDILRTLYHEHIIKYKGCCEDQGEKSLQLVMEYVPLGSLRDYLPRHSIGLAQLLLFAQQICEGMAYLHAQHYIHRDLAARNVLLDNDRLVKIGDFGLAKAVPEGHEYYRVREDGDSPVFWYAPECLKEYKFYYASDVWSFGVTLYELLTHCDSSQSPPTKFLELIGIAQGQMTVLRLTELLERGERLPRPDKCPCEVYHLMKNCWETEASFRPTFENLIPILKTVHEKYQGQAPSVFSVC
measured-attribute: DC50

Below: 3 compounds and their reported DC50.
- compound: "CNc1cc(N2CCc3c(CN4CCC(N5CCC6(CCN(C(=O)c7cc(F)c(OC)c(N8CCC(=O)NC8=O)c7)CC6)CC5)C(F)(F)C4)cccc32)nn2c(C(=O)N[C@@H]3C[C@@H]3F)cnc12 (stereo partly shown) [I-769]"
  assayed-target: "TYK2 (Homo sapiens, UniProt P29597)"
  DC50: "< 10 nM"
- compound: "CNc1cc(N2CCc3c(CCN4CCC(N5CCC6(CCN(C(=O)c7ccc(Cl)c(N8CCC(=O)NC8=O)c7)CC6)CC5)C(F)(F)C4)cccc32)nn2c(C(=O)NC3CC3F)cnc12 (stereo not shown) [I-687]"
  assayed-target: "TYK2 (Homo sapiens, UniProt P29597)"
  DC50: "< 1 nM"
- compound: "CNc1cc(N2CCc3c(-c4ccc(CN5CC6(CCN(C(=O)c7cc(Cl)c(C)c(N8CCC(=O)NC8=O)c7)CC6(F)F)C5)cn4)cccc32)nn2c(C(=O)N[C@@H]3C[C@@H]3F)cnc12 [I-634]"
  assayed-target: "TYK2 (Homo sapiens, UniProt P29597)"
  DC50: "< 1 nM"

Lab note: CNc1cc(N2CCc3c(CN4CCC(N5CCC(CN6CCN(C(=O)c7ccc(Cl)c(N8CCC(=O)NC8=O)c7)CC6)CC5)C(F)(F)C4)cccc32)nn2c(C(=O)N[C@@H]3C[C@@H]3F)cnc12 (stereo partly shown) [I-716] gave DC50 of < 1 nM

Entry source: patent US20260125400A1
